kon by entry:
target.entity: T1, Histidine-tagged human 4-1BB protein (h4-1BB-His) (human, UniProt Q07011 24-186)
T1 construct: not shown: histidine tag
protocol.text: SPR (Biacore T200), antibody on Protein A chip, h4-1BB-His injected;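 further: dissociation phase followed for 300 s, Kd derived as koff divided by kon from the kinetic fit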
Express it in M⁻¹ s⁻¹; write the number only.

Indicate the recorded kon value for this binder: 6A5-H2K3-IgG2 (antibody, V domains shown, humanized) VH: QVQLVQSGAEVKKPGSSVKLSCKASGYTFSSYWINWVRQAPGQGLEWIGNIYPSDSYTNYNQKFKDRATLTVDKSTSTAYMELSSLRSEDTAVYYCTRTWEFYYDSVFDYWGQGTLVTVSS VL: DIQMTQSPSSLSASLGERVTITCKASQDINSYLSWFQQKPGKAPKTLIYRANRLVDGVPSRFSGSGSGQDFTLTISSLQPEDIATYYCLQYDELPPTFGGGTKVEIK
2.28e+06

More entries:
Input 1C4-H4K2-IgG4 (antibody, V domains shown, humanized) VH: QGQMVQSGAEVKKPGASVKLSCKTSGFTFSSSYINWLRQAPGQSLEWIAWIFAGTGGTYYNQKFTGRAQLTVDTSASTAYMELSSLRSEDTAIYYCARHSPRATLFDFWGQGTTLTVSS VL: EIVLTQSPATLSLSPGERATLSCRASSSVNHMHWYQQKPGQAPRALIYATSNLASGIPARFSGSGSGTSFTLTISSLEPEDFATYYCQQWSSNPYTFGGGTKLEIK , output reported kon.
29600
